- PROCEDURE_TEXT: qHTS Assay for Modulators of miRNAs and/or Inhibitors of miR-21; note: potency is the fitted concentration of half-maximal effect; nearly all actives have a fitted effect of over 55% in size
- CONDITION_NOTES: HeLa miR-21-FLuc reporter, luciferase luminescence, 48 h; actives lower the signal
Screen size: about 340,000 compounds; about 3,300 (0.97%) were called active. About 9% were inconclusive and are not listed. The list shows a part of the results.
Here the recorded Potency is given for each entry.

[
  {
    "CHEM_SMILES": "O=C(CSc1nc2ccccc2s1)N/N=C/c1ccccc1C(=O)O",
    "REPORTED_ENDPOINT": "Potency",
    "TEST_RESULT": "16.5 µM (active)"
  },
  {
    "CHEM_SMILES": "COC(=O)c1sccc1N/N=C/c1ccc(OC)c(OC)c1OC",
    "REPORTED_ENDPOINT": "Potency",
    "TEST_RESULT": "6.56 µM (active)"
  },
  {
    "CHEM_SMILES": "COc1ccc(/C(C)=N/Nc2nncc3ccccc23)cc1",
    "REPORTED_ENDPOINT": "Potency",
    "TEST_RESULT": "0.826 µM (active)"
  }
]

Q. Recorded Potency of `CCC(=O)Nc1cc(C(=O)OCC(=O)c2ccccc2Cl)ccc1C` , please.
A. 10.4 µM (active)

Data provenance is PubChem BioAssay AID2289.
